All figures here come from patent US8541588B2.

target: Nav1.7 (or SCN9A) channel; HEK cells stably transfected with hSCN9A (Homo sapiens, UniProt Q15858); construct: expressed in transfected cells; test: Nav1.7 block, PatchXpress 7000 automated whole-cell voltage clamp, estimated IC50 (EIC50); assay type: cell-based; settings: estimated IC50; hSCN9A HEK cells, PatchXpress platform; Examples 815-1040
Sequence (Q15858 whole entry): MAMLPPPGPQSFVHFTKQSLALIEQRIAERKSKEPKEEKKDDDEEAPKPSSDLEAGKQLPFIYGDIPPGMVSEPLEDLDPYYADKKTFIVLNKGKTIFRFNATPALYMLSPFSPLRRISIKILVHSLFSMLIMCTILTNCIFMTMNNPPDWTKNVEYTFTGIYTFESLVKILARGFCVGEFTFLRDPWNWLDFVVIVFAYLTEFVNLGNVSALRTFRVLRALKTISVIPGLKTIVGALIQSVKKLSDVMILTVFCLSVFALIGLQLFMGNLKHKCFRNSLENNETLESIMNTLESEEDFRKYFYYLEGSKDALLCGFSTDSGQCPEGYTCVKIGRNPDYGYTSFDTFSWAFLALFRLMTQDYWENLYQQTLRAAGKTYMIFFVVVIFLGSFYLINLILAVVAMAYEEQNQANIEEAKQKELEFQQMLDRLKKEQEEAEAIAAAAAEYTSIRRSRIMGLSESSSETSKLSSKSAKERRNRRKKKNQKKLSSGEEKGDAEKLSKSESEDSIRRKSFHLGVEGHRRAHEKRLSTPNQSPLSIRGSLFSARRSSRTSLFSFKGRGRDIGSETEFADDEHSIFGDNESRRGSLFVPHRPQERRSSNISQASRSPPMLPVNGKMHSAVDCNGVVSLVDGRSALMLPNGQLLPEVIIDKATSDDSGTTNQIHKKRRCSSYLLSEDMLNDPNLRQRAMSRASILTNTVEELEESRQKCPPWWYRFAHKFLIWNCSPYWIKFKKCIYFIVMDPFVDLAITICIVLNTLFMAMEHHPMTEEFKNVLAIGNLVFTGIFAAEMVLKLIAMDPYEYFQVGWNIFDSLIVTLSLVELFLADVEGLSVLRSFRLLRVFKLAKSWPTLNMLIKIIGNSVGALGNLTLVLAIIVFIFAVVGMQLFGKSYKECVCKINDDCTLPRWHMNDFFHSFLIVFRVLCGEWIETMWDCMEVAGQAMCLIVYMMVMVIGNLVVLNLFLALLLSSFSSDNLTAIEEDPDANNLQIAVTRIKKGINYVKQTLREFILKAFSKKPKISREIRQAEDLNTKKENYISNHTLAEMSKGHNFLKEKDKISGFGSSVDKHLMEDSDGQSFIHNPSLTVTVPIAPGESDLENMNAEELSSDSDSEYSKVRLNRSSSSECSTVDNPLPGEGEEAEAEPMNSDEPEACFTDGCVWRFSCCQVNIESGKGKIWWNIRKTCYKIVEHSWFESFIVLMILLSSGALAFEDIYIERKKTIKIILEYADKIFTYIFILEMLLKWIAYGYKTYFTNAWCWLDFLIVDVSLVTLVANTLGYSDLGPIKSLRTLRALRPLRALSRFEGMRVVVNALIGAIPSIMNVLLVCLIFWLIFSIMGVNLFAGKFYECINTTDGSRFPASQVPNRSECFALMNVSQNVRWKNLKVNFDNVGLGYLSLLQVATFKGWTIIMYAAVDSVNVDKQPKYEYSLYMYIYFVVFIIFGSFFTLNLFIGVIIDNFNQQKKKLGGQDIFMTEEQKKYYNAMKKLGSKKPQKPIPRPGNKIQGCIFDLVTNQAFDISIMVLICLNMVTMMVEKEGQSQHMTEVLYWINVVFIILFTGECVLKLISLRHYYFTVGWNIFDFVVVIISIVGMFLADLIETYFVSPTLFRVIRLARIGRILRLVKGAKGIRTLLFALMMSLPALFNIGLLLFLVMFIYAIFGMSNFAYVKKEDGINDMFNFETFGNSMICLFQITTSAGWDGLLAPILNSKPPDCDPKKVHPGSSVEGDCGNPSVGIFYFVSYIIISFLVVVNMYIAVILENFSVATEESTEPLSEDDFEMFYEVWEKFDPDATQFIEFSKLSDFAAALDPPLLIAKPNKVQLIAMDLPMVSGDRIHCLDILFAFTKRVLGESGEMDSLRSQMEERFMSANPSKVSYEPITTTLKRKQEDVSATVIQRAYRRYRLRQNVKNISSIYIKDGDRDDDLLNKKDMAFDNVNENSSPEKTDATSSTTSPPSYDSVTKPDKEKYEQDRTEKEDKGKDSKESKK
RESULT_TYPE: IC50 (nM)

Illustrative cases are given below, each with its answer.
1) N#Cc1cc(S(=O)(=O)Nc2ncns2)ccc1Oc1ccc(Cl)cc1-c1cccc(C(=O)N2CCC2)c1 6.4
2) N#Cc1cc(S(=O)(=O)Nc2ncns2)ccc1Oc1ccc(Cl)cc1-c1cccc(CN2CCC2)c1 1.6

A. Cc1cnncc1-c1cc(Cl)ccc1Oc1ccc(S(=O)(=O)Nc2ncns2)cc1C#N
B. O=S(=O)(Nc1ncns1)c1ccc(Oc2ccc(Cl)cc2-c2ccnnc2)c(Cl)c1
Looking at recorded values for IC50, does A or B come in lower? Reply briefly: the label of your chosen item.
B
(B: 5.1 nM, A: 180 nM)

A. N#Cc1cc(S(=O)(=O)Nc2ncns2)ccc1Oc1cc(F)c(Cl)cc1-c1ccnnc1
B. O=S(=O)(Nc1nncs1)c1cc(Cl)c(Oc2ccc(Cl)cc2-c2cccc(CN3CCC3)n2)cc1F
C. Nc1[nH]ncc1-c1cc(Cl)ccc1Oc1ccc(S(=O)(=O)Nc2ncns2)cc1Cl
Exam item: list the entries in increasing order of IC50. # output: labels, in the requested order
C, A, B

a. O=S(=O)(Nc1nncs1)c1cc(Cl)c(Oc2cc(F)c(C(F)(F)F)cc2-c2ccnnc2)cc1F
b. N#Cc1cc(S(=O)(=O)Nc2ncns2)ccc1Oc1ccc(Cl)cc1-c1cccc(CN2CC(F)(F)C2)n1
c. O=S(=O)(Nc1nncs1)c1cc(F)c(Oc2ccc(Cl)cc2-c2ccnc(N3CCNCC3)c2)cc1F
Exam item: list the entries in increasing order of IC50. # output: labels, in the requested order
c, a, b
